# EXPERIMENT: AUC(0 to t) in Kunming mouse plasma at 5 mg/kg, po measured upto 24 hrs by LC-MS/MS method
# Assay type: ADME, organism-based
# Parameters: dose 5 mg/kg, time < 24 hrs, route po
ENDPOINT: AUC(0-t) at 24 h (ng·h/mL)
Entry rule: numbers only, all in ng·h/mL.

stdin: Can you look up the measured AUC(0-t) at 24 h of C#CCN(Cc1ccc(F)cc1)c1cc(C)c(NC(=O)OC)c(C)c1 for me?
stdout: 321

* * *

# EXPERIMENT: Metabolic stability in human liver microsomes assessed as half life
# Format: ADME, Microsome
ENDPOINT: half-life
Lab note: write values as number then unit, every time.

stdin: I would be grateful if you could share the reported half-life for C#CCN(Cc1ccc(F)cc1)c1cc(C)c(NC(=O)OC)c(C)c1 .
stdout: 27.7 min

* * *

# TARGET_OR_SYSTEM: Cytochrome P450 2C9 (Homo sapiens, UniProt P11712)
# Sequence (P11712 whole entry): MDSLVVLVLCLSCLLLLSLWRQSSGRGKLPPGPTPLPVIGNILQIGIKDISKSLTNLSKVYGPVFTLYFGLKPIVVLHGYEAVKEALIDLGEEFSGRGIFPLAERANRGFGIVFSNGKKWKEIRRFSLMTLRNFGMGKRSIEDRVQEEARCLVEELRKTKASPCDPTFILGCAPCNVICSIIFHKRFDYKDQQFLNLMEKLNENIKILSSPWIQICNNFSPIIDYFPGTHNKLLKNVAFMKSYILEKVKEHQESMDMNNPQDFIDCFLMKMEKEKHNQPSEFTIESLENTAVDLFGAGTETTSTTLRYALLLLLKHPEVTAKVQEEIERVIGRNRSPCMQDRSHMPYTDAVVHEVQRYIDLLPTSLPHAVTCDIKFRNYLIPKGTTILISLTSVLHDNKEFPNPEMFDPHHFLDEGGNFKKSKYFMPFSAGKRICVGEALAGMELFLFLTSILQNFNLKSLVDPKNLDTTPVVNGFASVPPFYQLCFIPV
# EXPERIMENT: Time dependent inhibition of human liver microsome CYP2C9 preincubated for 0.5 hrs in presence or absence of NADPH followed by substrate addition by LC-MS/MS method
ENDPOINT: IC50

stdin: Item under review: C#CCN(Cc1ccc(F)cc1)c1cc(C)c(NC(=O)OC)c(C)c1 . Reported IC50?
stdout: > 50 µM

* * *

# TARGET_OR_SYSTEM: CYP2B6 (Homo sapiens)
# Sequence (P20813 whole entry): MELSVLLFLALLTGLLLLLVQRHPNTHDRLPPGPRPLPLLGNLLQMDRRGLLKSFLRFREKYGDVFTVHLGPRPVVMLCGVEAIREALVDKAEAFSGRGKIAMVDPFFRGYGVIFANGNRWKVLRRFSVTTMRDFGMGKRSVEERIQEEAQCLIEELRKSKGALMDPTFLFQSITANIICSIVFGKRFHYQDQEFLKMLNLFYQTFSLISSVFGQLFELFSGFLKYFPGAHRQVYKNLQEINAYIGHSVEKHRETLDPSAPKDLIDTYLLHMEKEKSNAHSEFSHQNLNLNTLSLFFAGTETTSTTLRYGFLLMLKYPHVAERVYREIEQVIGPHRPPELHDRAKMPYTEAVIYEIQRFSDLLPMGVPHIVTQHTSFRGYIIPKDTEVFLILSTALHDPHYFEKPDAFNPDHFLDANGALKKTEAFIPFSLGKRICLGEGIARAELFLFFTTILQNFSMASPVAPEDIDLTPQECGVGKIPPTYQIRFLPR
# EXPERIMENT: Inhibition of human liver microsome CYP2B6 at 0.10 to 50 uM preincubated with NADPH for 0.5 hrs followed by substrate addition by LC-MS/MS method relative to control
# Assay type: ADME
# PARTICULARS: liver microsomes, dose 0.1-50 µM
ENDPOINT: inhibition at 0.5 h, up to 50 µM

stdin: I would be grateful if you could share the reported inhibition at 0.5 h, up to 50 µM for C#CCN(Cc1ccc(F)cc1)c1cc(C)c(NC(=O)OC)c(C)c1 .
stdout: < 25%

* * *

# EXPERIMENT: Metabolic stability in monkey liver microsomes assessed as half life
# Assay type: ADME, Macaca mulatta, Microsome
# PARTICULARS: rhesus monkey
ENDPOINT: half-life
Record the result as a number with its unit.

stdin: Look up half-life for this compound: C#CCN(Cc1ccc(F)cc1)c1cc(C)c(NC(=O)OC)c(C)c1
stdout: 18.1 min
